biological target: UDP-3-O-acyl-N-acetylglucosamine deacetylase (Escherichia coli K-12) (UniProt P0A725); experiment: Inhibition of LpxC in Escherichia coli DH5[alpha] assessed as reduction in microbial growth incubated for 22 hrs by MTT assay
Sequence (P0A725 whole entry): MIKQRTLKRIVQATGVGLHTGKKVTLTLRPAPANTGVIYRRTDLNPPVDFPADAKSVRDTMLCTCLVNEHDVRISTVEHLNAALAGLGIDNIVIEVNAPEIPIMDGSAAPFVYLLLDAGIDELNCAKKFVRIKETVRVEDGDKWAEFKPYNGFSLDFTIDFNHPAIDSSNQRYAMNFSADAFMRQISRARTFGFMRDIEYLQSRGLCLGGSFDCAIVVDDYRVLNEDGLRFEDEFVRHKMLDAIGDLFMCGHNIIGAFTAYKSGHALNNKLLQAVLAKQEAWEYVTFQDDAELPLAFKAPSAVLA
ENDPOINT LABEL: MIC (µg/mL)

[
  {
    "SMI": "Cc1cc(C#CC#CC2CC2)ccc1C(=O)N[C@H](C(=O)NO)[C@@H](C)O",
    "MIC [µg/mL]": 0.156
  }
]

(P) C[C@@H](O)[C@H](NC(=O)c1ccc(C#CC#CC2CC2)cc1O)C(=O)NO
(Q) C[C@@H](O)[C@H](NC(=O)c1ccc(C#CC#CC2CC2)cc1[N+](=O)[O-])C(=O)NO
Looking only at measured MIC, which entry is lower, P or Q ? // return label of chosen record
P
(P: 0.156 µg/mL, Q: 0.4 µg/mL)
